Data origin, for the record: patent US20240391954A1

- assay.notes: Mouse plasma stability
- Format: in vitro ADME
- condition.summary: 37° C.
Positions of bridges follow the written chain, without caps; N, C: chain ends. Non-standard residues stand in square brackets, D forms with d. Residues, ends and D or L forms follow the SMILES beside them. dPhe(4-F) = N[C@H](Cc1ccc(F)cc1)C(=O)O
So I've got a bunch of molecules here, and I need their half-life values.
Give bare numbers, in h.

List reported half-life for each of these molecules:
1. CC(=O)N[C@@H](CCCNC(=N)N)C(=O)N[C@H]1CSSC[C@@H](C(N)=O)NC(=O)[C@@H](Cc2c[nH]c3ccccc23)NC(=O)[C@H](CCCNC(=N)N)NC(=O)[C@@H](Cc2ccc(F)cc2)NC(=O)[C@H](CCCNC(=N)N)NC(=O)[C@@H](C)NC1=O [CTX-1236] (Ac-RC[dA]R[dPhe(4-F)]R[dW]C-NH2; disulfide 2-8)
2. CC(=O)N[C@@H](CCCNC(=N)N)C(=O)N[C@H]1CSSC[C@@H](C(N)=O)NC(=O)[C@@H](Cc2c[nH]c3ccccc23)NC(=O)[C@H](CCCNC(=N)N)NC(=O)[C@@H](Cc2ccccc2)NC(=O)[C@H](CCCNC(=N)N)NC(=O)[C@H](C)NC1=O [CTX-1268] (Ac-RCAR[dF]R[dW]C-NH2; disulfide 2-8)

Result:
3.78
1.75

* * *

So I've got a bunch of compounds here, and I need their MC4R selectivity vs MC3R values.
- tested.on: human MC3R (Homo sapiens, UniProt P41968)
- Construct: expressed in transfected cells; host or cells: HEK-293 cells stably expressing the GScAMP22F split-luciferase cAMP sensor (parent reporter line from Promega); MC3R clone generated in-house, G418 selection
- Sequence (P41968 whole entry): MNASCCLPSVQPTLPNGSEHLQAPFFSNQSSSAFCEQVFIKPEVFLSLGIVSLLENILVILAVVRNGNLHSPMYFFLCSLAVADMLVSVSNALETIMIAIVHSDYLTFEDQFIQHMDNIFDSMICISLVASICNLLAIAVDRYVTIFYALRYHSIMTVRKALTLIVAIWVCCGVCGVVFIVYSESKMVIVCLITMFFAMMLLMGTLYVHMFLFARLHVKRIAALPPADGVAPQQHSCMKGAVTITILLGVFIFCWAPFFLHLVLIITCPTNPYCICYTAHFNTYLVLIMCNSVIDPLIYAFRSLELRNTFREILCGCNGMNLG
- assay.notes: split-luciferase cAMP sensor assay, agonist mode (measurement window 1), hMC3R
- Assay type: cell-based
- condition.summary: MC4R versus MC3R
Positions of bridges follow the written chain, without caps; N, C: chain ends. Non-standard residues stand in square brackets, D forms with d. Residues, ends and D or L forms follow the SMILES beside them. 1Nal = N[C@@H](Cc1cccc2ccccc12)C(=O)O; Cit = NC(=O)NCCC[C@H](N)C(=O)O; Nle = CCCC[C@H](N)C(=O)O; Aib = CC(C)(N)C(=O)O
Answers are plain numbers.

Example compounds with recorded MC4R selectivity vs MC3R:
- CC(=O)N[C@H]1CSSC[C@@H](C(N)=O)NC(=O)[C@H](Cc2ccccc2)NC(=O)[C@H](CCCNC(=N)N)NC(=O)[C@@H](Cc2ccccc2)NC(=O)[C@H](CCCNC(N)=O)NC(=O)C(C)(C)NC1=O [CTX-1636, cyclo(Cys-Aib-Cit-D-Phe-Arg-Phe-Cys)] (Ac-C[Aib][Cit][dF]RFC-NH2; disulfide 1-7 (inferred)): 9.44
- CCCC[C@H](NC(=O)[C@H](CCCNC(=N)N)NC(C)=O)C(=O)N[C@H]1CSSC[C@@H](C(N)=O)NC(=O)[C@H](Cc2c[nH]c3ccccc23)NC(=O)[C@H](CCCNC(=N)N)NC(=O)[C@H](Cc2cccc3ccccc23)NC(=O)[C@H](Cc2c[nH]cn2)NC1=O [CTX-1610] (Ac-R[Nle]CH[1Nal]RWC-NH2; disulfide 3-8): 0.66

Query compound follows.
Task: I have this compound here, CCCC[C@H](NC(=O)[C@H](CCCNC(=N)N)NC(C)=O)C(=O)N[C@H]1CSSC[C@@H](C(N)=O)NC(=O)[C@H](Cc2c[nH]c3ccccc23)NC(=O)[C@H](CCCNC(=N)N)NC(=O)[C@@H](Cc2ccccc2)NC(=O)[C@H](Cc2c[nH]cn2)NC1=O [CTX-1227, Arg-Nle-cyclo(Cys-His-D-Phe-Arg-Trp-Cys)] (Ac-R[Nle]CH[dF]RWC-NH2; disulfide 3-8 (inferred)) , and I need its recorded MC4R selectivity vs MC3R.
Result: 11

* * *

- tested.on: human MC4R (Homo sapiens, UniProt P32245)
- Construct: host or cells: HEK-293 cells stably expressing the GScAMP22F split-luciferase cAMP sensor and hMC4R, G418 selection
- Sequence (P32245 whole entry): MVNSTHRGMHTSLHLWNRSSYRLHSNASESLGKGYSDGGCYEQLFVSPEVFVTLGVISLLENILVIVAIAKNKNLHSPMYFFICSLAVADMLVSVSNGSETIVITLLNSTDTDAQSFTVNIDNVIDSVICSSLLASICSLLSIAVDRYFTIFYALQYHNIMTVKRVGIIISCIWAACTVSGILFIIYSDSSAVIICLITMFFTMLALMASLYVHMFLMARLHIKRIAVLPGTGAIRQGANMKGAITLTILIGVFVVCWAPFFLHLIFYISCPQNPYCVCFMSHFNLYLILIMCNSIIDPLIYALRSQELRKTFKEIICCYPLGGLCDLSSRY
- assay.notes: split-luciferase cAMP sensor assay, agonist mode (measurement window 1), hMC4R
- Format: cell-based
Positions of bridges follow the written chain, without caps; N, C: chain ends. Non-standard residues stand in square brackets, D forms with d. Residues, ends and D or L forms follow the SMILES beside them. dDip = N[C@@H](C(=O)O)C(c1ccccc1)c1ccccc1; dPhe(4-Br) = N[C@H](Cc1ccc(Br)cc1)C(=O)O; d2Nal = N[C@H](Cc1ccc2ccccc2c1)C(=O)O; NMeR = CN[C@@H](CCCNC(=N)N)C(=O)O; dNMeF = CN[C@H](Cc1ccccc1)C(=O)O; Nle = CCCC[C@H](N)C(=O)O
measured.property: MC4R selectivity vs MC3R
One number for each entry.

Example compounds with recorded MC4R selectivity vs MC3R:
• CC(=O)N[C@@H](CCCNC(=N)N)C(=O)N[C@H]1CSSC[C@@H](C(N)=O)NC(=O)[C@@H](Cc2c[nH]c3ccccc23)NC(=O)[C@H](CCCNC(=N)N)N(C)C(=O)[C@@H](Cc2ccc(Br)cc2)NC(=O)[C@H](CCCNC(=N)N)NC(=O)[C@@H](C)NC1=O [CTX-1251] (Ac-RC[dA]R[dPhe(4-Br)][NMeR][dW]C-NH2; disulfide 2-8) = 3.73
• CC(=O)N[C@@H](CCCNC(=N)N)C(=O)N[C@H]1CSSC[C@@H](C(N)=O)NC(=O)[C@@H](Cc2c[nH]c3ccccc23)NC(=O)[C@H](CCCNC(=N)N)NC(=O)[C@@H](Cc2ccccc2)N(C)C(=O)[C@H](CCCNC(=N)N)NC(=O)[C@@H](C)NC1=O [CTX-1272] (Ac-RC[dA]R[dNMeF]R[dW]C-NH2; disulfide 2-8 (inferred)) = 0.9
• CC(=O)N[C@@H](CCCNC(=N)N)C(=O)N[C@H]1CSSC[C@@H](C(N)=O)NC(=O)[C@@H](Cc2ccc3ccccc3c2)NC(=O)[C@H](CCCNC(=N)N)NC(=O)[C@@H](Cc2ccc(Br)cc2)NC(=O)[C@H](CCCNC(=N)N)NC(=O)[C@@H](C)NC1=O [CTX-1254] (Ac-RC[dA]R[dPhe(4-Br)]R[d2Nal]C-NH2; disulfide 2-8) = 2.19

List reported MC4R selectivity vs MC3R for each of these compounds:
1. CCCC[C@H](NC(=O)[C@H](CCCNC(=N)N)NC(C)=O)C(=O)N[C@H]1CSSC[C@@H](C(N)=O)NC(=O)[C@H](Cc2c[nH]c3ccccc23)NC(=O)[C@H](CCCNC(=N)N)NC(=O)[C@@H](Cc2ccc(Br)cc2)NC(=O)[C@H](CCCNC(=N)N)NC1=O [CTX-1230] (Ac-R[Nle]CR[dPhe(4-Br)]RWC-NH2; disulfide 3-8)
2. CC(=O)N[C@@H](CCCNC(=N)N)C(=O)N[C@H]1CSSC[C@@H](C(N)=O)NC(=O)[C@H](Cc2c[nH]c3ccccc23)NC(=O)[C@H](CCCNC(=N)N)NC(=O)[C@@H](Cc2c[nH]c3ccccc23)NC(=O)[C@H](CCCNC(=N)N)NC(=O)[C@@H](C)NC1=O [CTX-1274] (Ac-RC[dA]R[dW]RWC-NH2; disulfide 2-8)
3. CC(=O)N[C@@H](CCCNC(=N)N)C(=O)N[C@H]1CSSC[C@@H](C(N)=O)NC(=O)[C@@H](Cc2c[nH]c3ccccc23)NC(=O)[C@H](CCCNC(=N)N)NC(=O)[C@@H](C(c2ccccc2)c2ccccc2)NC(=O)[C@H](CCCNC(=N)N)NC(=O)[C@@H](C)NC1=O [CTX-1280] (Ac-RC[dA]R[dDip]R[dW]C-NH2; disulfide 2-8 (inferred))

Result:
1. 1.95
2. 0.12
3. 1.24
